Hey, just so you know, these numbers are from patent US8404738B2.

target: recombinant human HDAC8 (Homo sapiens); construct: made in house; host or cells: insect cells; experiment: HDAC8 inhibition: recombinant HDAC8 fluorometric assay; assay type: biochemical; details: recombinant human HDAC8, substrate Ac-Arg-His-Lys-Lys(ε-acetyl)-AMC; read-out: HDAC8 IC50
Result Type: pIC50
A value of pIC50 is the negative decimal logarithm of a concentration given in moles per litre.

Record O=C(NO)c1ccc(NC2CCN(C(=O)c3ccccc3)C2)cc1 (stereo not shown) [Example 88] / recombinant human HDAC8 (Homo sapiens), pIC50 recorded as 5.87

Record O=C(NO)c1ccc(NC2CCN(c3ccccc3F)C2=O)cc1 (stereo not shown) [Example 2] / recombinant human HDAC8 (Homo sapiens), pIC50 recorded as 6.08

Record O=C(NO)c1ccc(NC2CCN(c3ccc(-n4ccnc4)cc3)C2=O)cc1 (stereo not shown) [Example 34] / recombinant human HDAC8 (Homo sapiens), pIC50 recorded as 5.54

Record O=C(NO)c1ccc(NC2CCN(c3cccc4ncccc34)C2=O)cc1 (stereo not shown) [Example 40] / recombinant human HDAC8 (Homo sapiens), pIC50 recorded as 6.29

Record O=C(NO)c1ccc(NC2CCN(c3ccccc3Cl)C2=O)cc1 (stereo not shown) [Example 5] / recombinant human HDAC8 (Homo sapiens), pIC50 recorded as 6.43

Record CC1(Nc2ccc(C(=O)NO)cc2)C(=O)N(Cc2ccccc2Cl)c2ccccc21 (stereo not shown) [Example 92] / recombinant human HDAC8 (Homo sapiens), pIC50 recorded as 5.76

Record O=C(NO)c1ccc(NC2CC(=O)N(c3ccc(Cl)cc3)C2)cc1 (stereo not shown) [Example 73] / recombinant human HDAC8 (Homo sapiens), pIC50 recorded as 5.98

Record O=C(NO)c1ccc(NC2CCN(C3(c4ccccc4)CCC3)C2=O)cc1 (stereo not shown) [Example 54] / recombinant human HDAC8 (Homo sapiens), pIC50 recorded as 6.51

Record O=C(NO)c1ccc(NC2CCN(c3cccc(Oc4ccccc4)c3)C2=O)cc1 (stereo not shown) [Example 30] / recombinant human HDAC8 (Homo sapiens), pIC50 recorded as 5.49

Record O=C(NO)c1ccc(NC2CCN(c3ccc(Cl)c(Cl)c3)C2=O)cc1 (stereo not shown) [Example 25] / recombinant human HDAC8 (Homo sapiens), pIC50 recorded as 6.01

* * *

Target: recombinant human HDAC8 (Homo sapiens)
Construct: made in house; host or cells: insect cells
Sequence (Q9BY41 1-377): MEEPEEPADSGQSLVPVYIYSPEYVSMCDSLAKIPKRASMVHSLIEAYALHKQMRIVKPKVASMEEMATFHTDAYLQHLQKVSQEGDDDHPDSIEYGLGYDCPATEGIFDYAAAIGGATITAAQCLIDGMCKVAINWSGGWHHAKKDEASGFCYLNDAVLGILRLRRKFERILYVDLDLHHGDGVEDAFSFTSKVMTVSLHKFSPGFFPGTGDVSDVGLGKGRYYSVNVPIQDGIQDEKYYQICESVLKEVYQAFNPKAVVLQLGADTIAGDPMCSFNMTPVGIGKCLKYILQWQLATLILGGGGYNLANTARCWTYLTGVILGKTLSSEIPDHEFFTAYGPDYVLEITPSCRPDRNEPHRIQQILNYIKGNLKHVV
Experiment: HDAC8 inhibition: recombinant HDAC8 fluorometric assay
Type: biochemical
Conditions: recombinant human HDAC8, substrate Ac-Arg-His-Lys-Lys(ε-acetyl)-AMC; read-out: HDAC8 IC50
Result Type: IC50 (µM)
Kindly provide the numeric value in µM only, without the unit symbol.

>>> print(df.to_string())
                                   compound  recorded_result
0  O=C(NO)c1ccc(NC2CCN(C3(c4ccccc4)CCCC3)C2=O)cc1 (stereo not shown) [Example 55]             0.82
1  O=C(NO)c1ccc(NC2CCN(c3ccc(Cl)c(CO)c3)C2=O)cc1 (stereo not shown) [Example 29]             0.75
2  O=C(NO)c1ccc(NC2CCN(c3c(Cl)cccc3Cl)C2)cc1 (stereo not shown) [Example 81]             1.92
3  CC(C)(c1ccccc1)N1CCC(Nc2ccc(C(=O)NO)cc2)C1=O (stereo not shown) [Example 47]             0.52
4  O=C(NO)c1ccc(NC2CCN(c3ccccc3)C2=O)cc1F (stereo not shown) [Example 66]             1.25
5  O=C(NO)c1ccc(NC2CCN(c3cccc4ccccc34)C2=O)cc1 (stereo not shown) [Example 37]             0.93

Lab note: measured IC50 of CC1(Nc2ccc(C(=O)NO)cc2)CCN(c2cnc3ccccc3c2)C1=O (stereo not shown) [Example 61] was 1.42
